Below: a set of entries, each annotated with reported pIC50.
system: MDA-MB-231; experiment: Cytotoxicity against human MDA-MB-231 cells assessed as reduction in cell viability after 48 hrs by MTT assay; type: functional, cell-based; conditions: MDA-MB-231, 48 h
pIC50: −log10 of the molar value.

{"columns": ["substance-smiles", "measured-target", "relation", "pIC50"],
 "data": [
  ["O=Cc1c(O)ccc2oc(-c3ccco3)nc12", "MDA-MB-231", "<", 4.52],
  ["COc1ccccc1-c1nc2c(C=O)c(O)ccc2o1", "MDA-MB-231", "=", 5.23],
  ["O=Cc1c(O)ccc2oc(-c3cccc(Cl)c3)nc12", "MDA-MB-231", "=", 5.88],
  ["COc1cc(OC)cc(-c2nc3c(C=O)c(O)ccc3o2)c1", "MDA-MB-231", "=", 4.47],
  ["CC(=O)c1c(O)ccc2oc(-c3ccccc3)nc12", "MDA-MB-231", "<", 4.52],
  ["O=Cc1c(O)ccc2oc(-c3cccc4ccccc34)nc12", "MDA-MB-231", "=", 4.51],
  ["O=Cc1c(O)ccc2oc(-c3ccccc3[N+](=O)[O-])nc12", "MDA-MB-231", "=", 5.04],
  ["O=Cc1c(O)ccc2oc(-c3ccccc3Cl)nc12", "MDA-MB-231", "=", 5.25],
  ["CC(=O)c1c(O)ccc2oc(-c3ccccc3C)nc12", "MDA-MB-231", "=", 4.52],
  ["Cc1ccccc1-c1nc2c(C=O)c(O)ccc2o1", "MDA-MB-231", "=", 5.27]
]}
